- TESTED ON: HLA-A*3301 (Homo sapiens, UniProt P04439, A270S/D185E/E176V/E277Q/E87N/F33T/G231S/H175R/I121M/I218V/I322F/K168Q/K210R/L300P/L318F/M331R/P217A/Q86R/Q94H/R138Q/T323A/T345S/T97I/V358M/Y195H)
- PROTOCOL SUMMARY: purified HLA class I binding assay, A*3301
No end group written: not given here.
RECORDED METRIC: pIC50
The meaning of pIC50 here: minus log10 of the concentration in molar units.

Incoming: Requested read-out: pIC50. Entry: KIQNFRVYYR [1211.32]
Outgoing: 6.47

Incoming: What value of measured pIC50 is listed for KLAGRWPVK [1069.44] ?
Outgoing: 4.14

Incoming: Report pIC50 for NTPVFAIKK [1273.02] please.
Outgoing: 4.32

Incoming: Which pIC50 reading was recorded for the sequence TIKIGGQLK [1273.05] ?
Outgoing: 4.44

Incoming: Any idea what its pIC50 is? The sequence is IVIWGKTPK [1193.0200]
Outgoing: 7.01

Incoming: Data request, read-out pIC50, for TTLFCASDAK [1273.07]
Outgoing: 4.84

Incoming: Quick one: pIC50 of VMIVWQVDR [Peptide 1273.08] ?
Outgoing: 8.28
